# TARGET OR SYSTEM: Nav 1.7 (Homo sapiens (Human), UniProt Q15858)
# Sequence (Q15858 whole entry): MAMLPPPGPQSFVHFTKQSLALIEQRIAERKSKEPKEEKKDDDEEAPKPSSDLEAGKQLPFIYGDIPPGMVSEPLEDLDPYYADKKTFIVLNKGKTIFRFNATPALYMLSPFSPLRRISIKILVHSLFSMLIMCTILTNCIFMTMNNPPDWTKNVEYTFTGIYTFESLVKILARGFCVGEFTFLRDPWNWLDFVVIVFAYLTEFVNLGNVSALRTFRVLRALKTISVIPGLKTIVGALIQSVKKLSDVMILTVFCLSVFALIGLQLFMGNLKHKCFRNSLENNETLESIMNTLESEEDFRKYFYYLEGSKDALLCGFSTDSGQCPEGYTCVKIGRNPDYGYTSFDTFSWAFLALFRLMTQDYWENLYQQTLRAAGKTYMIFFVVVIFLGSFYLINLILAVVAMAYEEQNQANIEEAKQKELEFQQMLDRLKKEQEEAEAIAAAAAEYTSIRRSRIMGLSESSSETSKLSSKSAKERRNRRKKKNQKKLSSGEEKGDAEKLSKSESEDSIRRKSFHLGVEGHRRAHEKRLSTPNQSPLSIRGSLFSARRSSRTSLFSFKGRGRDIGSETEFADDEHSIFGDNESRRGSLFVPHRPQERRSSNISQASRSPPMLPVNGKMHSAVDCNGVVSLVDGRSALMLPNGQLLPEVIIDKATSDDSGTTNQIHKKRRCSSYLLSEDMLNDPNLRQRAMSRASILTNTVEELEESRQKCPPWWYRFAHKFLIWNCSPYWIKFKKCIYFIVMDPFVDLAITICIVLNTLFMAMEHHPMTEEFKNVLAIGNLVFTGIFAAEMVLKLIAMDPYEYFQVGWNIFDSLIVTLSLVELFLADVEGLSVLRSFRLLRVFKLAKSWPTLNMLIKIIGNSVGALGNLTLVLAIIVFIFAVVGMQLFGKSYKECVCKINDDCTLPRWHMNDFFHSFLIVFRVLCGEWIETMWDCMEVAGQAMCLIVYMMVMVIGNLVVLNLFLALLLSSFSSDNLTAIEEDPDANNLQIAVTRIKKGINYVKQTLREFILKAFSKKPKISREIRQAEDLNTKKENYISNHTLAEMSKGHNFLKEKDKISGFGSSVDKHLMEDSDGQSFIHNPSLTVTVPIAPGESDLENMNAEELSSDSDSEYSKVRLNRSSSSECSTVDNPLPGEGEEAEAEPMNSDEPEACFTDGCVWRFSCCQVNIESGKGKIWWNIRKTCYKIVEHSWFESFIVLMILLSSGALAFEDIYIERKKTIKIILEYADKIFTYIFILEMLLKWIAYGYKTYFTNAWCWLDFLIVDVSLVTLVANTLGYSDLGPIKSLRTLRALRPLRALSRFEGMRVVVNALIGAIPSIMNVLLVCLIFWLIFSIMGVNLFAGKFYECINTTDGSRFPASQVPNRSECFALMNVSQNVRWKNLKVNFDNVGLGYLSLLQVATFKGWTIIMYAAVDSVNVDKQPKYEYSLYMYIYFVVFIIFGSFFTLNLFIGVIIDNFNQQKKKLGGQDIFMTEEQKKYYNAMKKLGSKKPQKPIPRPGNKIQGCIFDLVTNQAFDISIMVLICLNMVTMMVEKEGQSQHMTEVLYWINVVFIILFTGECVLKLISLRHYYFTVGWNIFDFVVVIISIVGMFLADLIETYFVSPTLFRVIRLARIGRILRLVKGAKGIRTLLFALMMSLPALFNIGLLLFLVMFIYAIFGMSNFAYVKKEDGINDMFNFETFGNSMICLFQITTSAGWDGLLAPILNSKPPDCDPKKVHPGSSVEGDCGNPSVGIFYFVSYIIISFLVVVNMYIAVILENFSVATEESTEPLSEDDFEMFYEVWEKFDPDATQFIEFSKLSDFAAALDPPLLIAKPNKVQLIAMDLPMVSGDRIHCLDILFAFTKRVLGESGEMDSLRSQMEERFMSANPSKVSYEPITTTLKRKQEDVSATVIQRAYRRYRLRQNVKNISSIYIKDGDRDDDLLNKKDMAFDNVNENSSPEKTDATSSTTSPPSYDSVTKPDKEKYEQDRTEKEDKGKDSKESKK
# ASSAY NOTES: in-vitro Nav 1.7 PX (IC50)
# Assay type: cell-based
# CONDITION SUMMARY: in-vitro Nav 1.7 PX data, Table 4
Under this convention, 1 denotes IC50 strictly below 40 nM and -1 denotes IC50 at or above 40 nM.

Solved cases below.
{"columns": ["COMPOUND", "LABEL"],
 "data": [
  ["COc1cc(-c2ccc(Cl)cc2)c(F)cc1-n1c(=O)ccc2cc(S(=O)(=O)Nc3ccc(F)cn3)ccc21 (atropisomer, axis not shown; (P)) [Example 1163]", -1],
  ["COc1cc(-c2cnc(OC)c(Cl)c2)c(F)cc1-n1c(=O)ccc2cc(S(=O)(=O)Nc3ncco3)ccc21 (atropisomer, axis not shown; (P)) [Example 1158]", -1],
  ["COc1cc(-c2cnc(OC)c(Cl)c2)c(F)cc1-n1c(=O)ccc2cc(S(=O)(=O)Nc3ccc(F)cn3)ccc21 (atropisomer, axis not shown; (P)) [Example 1161]", 1],
  ["COc1cc(-c2cnc(OC)c(Cl)c2)c(F)cc1-n1c(=O)ccc2cc(S(=O)(=O)Nc3cccc(F)n3)ccc21 (atropisomer, axis not shown; (P)) [Example 1162]", 1],
  ["COc1cc(-c2cnc(OC)c(Cl)c2)c(F)cc1-n1c(=O)ccc2cc(S(=O)(=O)Nc3cc(C)ncn3)ccc21 (atropisomer, axis not shown; (P)) [Example 1159]", -1]
]}

// switching to the query compound
Item COc1cc(-c2cnc(OC)c(Cl)c2)c(F)cc1-n1c(=O)ccc2cc(S(=O)(=O)Nc3ccnc(C)n3)ccc21 (atropisomer, axis not shown; (P)) [Example 1160] : IC50 beneath 40 nM, strictly?
-1

###

# TARGET OR SYSTEM: UniProt Q15858
# ASSAY NOTES: in-vitro Nav 1.7 PX (IC50)
# Type: cell-based
# CONDITION SUMMARY: in-vitro Nav 1.7 PX data
Catalogue of pIC50 values
Scale: negative log10 of molar concentration, which is what pIC50 denotes.

Below, 3 compounds whose answers are already recorded.
{"columns": ["COMPOUND", "pIC50"],
 "data": [
  ["COc1cc(C2CCC(F)(F)CC2)c(F)cc1-n1c(=O)ccc2cc(S(=O)(=O)Nc3ccon3)ccc21", 6.63],
  ["COc1cc(Cl)c(-c2cc(F)cc(Cl)c2)cc1-n1c(=O)ccc2cc(S(=O)(=O)Nc3ccon3)ccc21 (atropisomer, axis not shown; (P)) [Example 614]", 8.05],
  ["COc1cc(Cl)ccc1-c1ccc(-n2c(=O)ccc3cc(S(=O)(=O)Nc4ccon4)ccc32)c(OC)c1", 7.57]
]}

Look at this compound and give its reported pIC50. COc1cc(OC)cc(-c2ccc(-n3c(=O)ccc4cc(S(=O)(=O)Nc5ccon5)ccc43)c(OC)c2)c1
7.18

Look at this compound and give its reported pIC50. COc1cnc(-c2cc(F)cc(Cl)c2)cc1-n1c(=O)ccc2cc(S(=O)(=O)Nc3ccon3)ccc21
6.22

Look at this compound and give its reported pIC50. COc1cc(F)cc(-c2ccc(OC)c(-n3c(=O)ccc4cc(S(=O)(=O)Nc5ccon5)ccc43)c2)c1 [Example 853]
7.22

Look at this compound and give its reported pIC50. COc1cc(-c2ccc(C)c(F)c2)c(F)cc1-n1c(=O)ccc2cc(S(=O)(=O)Nc3cc(C)ncn3)ccc21
7.10

Look at this compound and give its reported pIC50. COc1cc(-c2ccc(F)c(C)c2)c(F)cc1-n1c(=O)ccc2cc(S(=O)(=O)Nc3ncc(F)cn3)ccc21
7.51

Look at this compound and give its reported pIC50. COc1cc(-c2ccc(F)c(C)c2)c(F)cc1-n1c(=O)ccc2cc(S(=O)(=O)Nc3nnc(C)s3)ccc21
7.00

Look at this compound and give its reported pIC50. COc1ccc(-c2cc(Cl)ccc2F)cc1-n1c(=O)ccc2cc(S(=O)(=O)Nc3ccon3)ccc21
7.49

Look at this compound and give its reported pIC50. COc1cc(-c2ccc(F)c(C)c2)c(F)cc1-n1c(=O)ccc2cc(S(=O)(=O)Nc3ccnc(C)n3)ccc21
7.57

Look at this compound and give its reported pIC50. COc1cc(-c2cccc(C)c2)c(F)cc1-n1c(=O)ccc2cc(S(=O)(=O)Nc3ncccn3)ccc21
7.49

Look at this compound and give its reported pIC50. CCc1cccc(-c2cc(OC)c(-n3c(=O)ccc4cc(S(=O)(=O)Nc5ccon5)ccc43)cc2F)c1
8.05

Look at this compound and give its reported pIC50. COc1cc(Br)c(F)cc1-n1c(=O)ccc2cc(S(=O)(=O)Nc3cccc(C)n3)ccc21
5.06
